For each record, write down the corresponding Sol pH 7.4.
Procedure Summary: Assessment of solubility (HT solubility, pION, UV)
Format: physicochemical
Protocol Conditions: pH 7.4 buffer, incubated 16-19 hours, 1.0% DMSO, 100 uM

Here's what some known entries look like.
Cc1ccc(OCc2ccc3c(c2)CCN(CCc2ccccc2)C3)c(-c2cccc(-n3ncc(C(=O)O)c3C(F)(F)F)n2)c1 : 10.7 μg/mL
Cc1cccc(-c2cccc(-c3nc(C)c(C(=O)O)s3)n2)c1OCc1ccc2c(c1)CCN(C1CCOCC1)C2 : >110 μg/mL

I need Sol pH 7.4 for every entry listed below, if you could help.
1. Cc1ccc(OCc2ccc3c(c2)CCN(Cc2cc(C)on2)C3)c(-c2cccc(-n3ncc(C(=O)O)c3C(F)(F)F)n2)c1
2. Cc1ccc(OCc2ccc3c(c2)CCN(C2CCC2)C3)c(-c2cccc(-n3ncc(C(=O)O)c3C(F)(F)F)n2)c1

Reply:
>60 μg/mL
>67 μg/mL
